Reference source for all entries: patent US20220073643A1

// reported CDC % Relative activity per item
molecular target: human Claudin18.2 (human); assay: cell-based or functional assay
Mention the unit after the number when you answer.

// worked examples, CDC % Relative activity included
{"Binder": "186G12H3 (antibody, V domains shown) VH: EVMLVESGGGLVKPGGSLKLSCAASRFTLSSYAMSWVRQTPEKRLEWVATISSGGSYTYYFDSVKGRFTISRDTAKNTLNLQMSSLRSEDTAMYYCARLYYGNALDYWGQGTSVTVSS VL: DIVMTQSPSSLTVTAGEKVTVSCKSSQSLLNSGNQKNYLTWYQQKPGQPPKLLIYWASTRESGVPDRFTGSGSGTDFTLTISSVQAEDLAVYYCQNNYIYPLTFGAGTTLELK", "CDC % Relative activity": "114%"}
{"Binder": "248G8E8 (antibody, V domains shown) VH: QVQLKESGPGLVAPSQSLSITCTVSGFSLTTYGVSWVRQPPGKGLEWLGVIWGDGSTNYHSTLISRLRISKDKSKSQVFLKLNSLQTDDTATYYCAKAGRGNALDYWGQGTSVTVSS VL: DIVLTQSPSSLTVTAGEKVTMSCKSSQSLLNSGNQKNYLTWYQQKPGQPPKLLIYWASTRESGVPDRFTGSGSGTDFTLTISSVQAEDLAVYYCQNDYSFPLTFGAGTKLELK", "CDC % Relative activity": "114%"}

Turning to the following binder.
[in] What measured CDC % Relative activity goes with 370E2B12C3 (antibody, V domains shown) VH: QVQLKESGPGLVAPSQSLSITCTVSGFSLTTYGVHWVRQPPGKGLEWLGVIWAGGSTNYNSALMSRVSINKDNSKSQVFIKMNSLQADDTALYYCARAAYYGNGLDYWGQGTTLTVSS VL: DIVMTQSPSSLTVTAGEKVTMSCKSSQTLLNSGNQKNYLTWYQQKPGQPPKLLIYWASTGESGVPDRFTGSGSGTDFTLTISSVQAEDLAVYFCQNAYFYPFTFGGGTKLEIK ?
[out] 379%
